- Test system: SNB-78
- MEASUREMENT_NOTES: NCI tumour cell line growth inhibition, 48 h
The source made the active and inactive calls. No stated cut-off is given here; in the data, active = GI50 up to about 1.1 µM and inactive = higher.
Labels: active, inactive

# MOLECULE, SUBJECT_OF_TEST, CLASSIFICATION
data = [
    ("Cc1cc2c(C)nn(Cc3ccccc3)c2c(C(N)=O)c1C", "SNB-78", "inactive"),
    ("O=C(Nc1cccc(O)c1)C(=O)C1C(=O)NC(=S)NC1=O", "SNB-78", "inactive"),
    ("COc1ccccc1NC(=O)C1=C(C)NC(C)=C(C(=O)Nc2ccccc2OC)C1c1cccc2ccccc12", "SNB-78", "inactive"),
    ("Nc1ccc(N)c2c1C(=O)c1ccccc1C2=O", "SNB-78", "inactive"),
    ("Cn1c(=O)oc2cc(C3CCC(=O)N3Cc3ccc(Cl)cc3)ccc21 (stereo unspecified)", "SNB-78", "inactive"),
    ("C/C(=C1/N=C(c2cc([N+](=O)[O-])ccc2Cl)N(c2cccc(C)c2)C1=O)c1cc2ccccc2oc1=O", "SNB-78", "inactive"),
    ("Cc1cccc(C)c1NC(=O)CCc1nnc(S)[nH]1", "SNB-78", "inactive"),
    ("Cc1ccc(C)c(NC(=O)C(=O)CC(=O)C2CCOC2=O)c1 (stereo unspecified)", "SNB-78", "inactive"),
    ("CC1=NN(C(=O)c2ccccc2O)C(=O)/C1=C/c1ccc([N+](=O)[O-])cc1", "SNB-78", "active"),
    ("CC12Oc3ccc4ccccc4c3C1c1c(ccc3ccccc13)O2 (stereo unspecified)", "SNB-78", "inactive"),
    ("COC(=O)C1CC/C(=N\\c2cccc(C(F)(F)F)c2)N1 (stereo unspecified)", "SNB-78", "inactive"),
]

---

Item-by-item account of GI50
- Test system: A498
- MEASUREMENT_NOTES: NCI tumour cell line growth inhibition, 48 h
Calls of active or inactive are those of the source. Cut-off read from the data, not from the text of the source: active = GI50 up to about 1.1 µM and inactive = higher. Square brackets hold non-standard residues; d marks the D form. Peptide text beside a SMILES is read from it. Ac5c = NC1(C(=O)O)CCCC1
REPORTED_ENDPOINT: GI50

# COMPOUND, OBSERVED_VALUE
records = [
    ("C=CCSc1nc2ccccc2c(=O)n1Cc1ccco1", "> 100 µM (inactive)"),
    ("Nc1n[n+]2cc(-c3ccccc3)n(CC(=O)c3ccccc3)c2s1", "> 100 µM (inactive)"),
    ("O=C(O)CCS/C(=C\\C(SCCC(=O)O)c1ccc(Cl)cc1)c1ccc(Cl)cc1 (stereo unspecified)", "19.7 µM (inactive)"),
    ("C=CCN(C(=O)OC(C)(C)C)[C@H](C)C(=O)N[C@@H](C)C(=O)OC", "> 100 µM (inactive)"),
    ("Clc1ncnc2c1ncn2CCCCCCCCCCCCn1cnc2c(Cl)ncnc21", "12.2 µM (inactive)"),
    ("CCO/C(CCn1[nH]c(=O)c(Cl)c(Cl)c1=O)=N\\NC(=O)C(=O)NN", "82.8 µM (inactive)"),
    ("COC(=O)c1ccccc1C1CN=NC12Cc1c(C)c3c(c(C)c1C2=O)CCC3 (stereo unspecified)", "> 100 µM (inactive)"),
    ("CC(C)(C)c1nc2c(o1)/C(=N\\c1ccc(F)cc1)c1ccccc1C2=O", "27.4 µM (inactive)"),
    ("CC(C)C1OC2(C)OC(=N)C1(C#N)C(C#N)(C#N)C2C (stereo unspecified)", "67.5 µM (inactive)"),
    ("CCn1nc(C)c2c1C(=O)NCC(=O)N2", "> 100 µM (inactive)"),
    ("N#Cc1cc(N(CCCl)CCCl)c([N+](=O)[O-])cc1[N+](=O)[O-]", "> 100 µM (inactive)"),
    ("Cc1cn(Cc2ccccc2CCO)c(=S)[nH]c1=O", "> 100 µM (inactive)"),
    ("N#Cc1c(N)[nH]c(=S)c(C#N)c1-c1cccc(Cl)c1", "30.1 µM (inactive)"),
    ("NCC(=O)NC1(C(=O)O)CCCC1 (H-Gly-[Ac5c]-OH)", "> 100 µM (inactive)"),
    ("CCOC(=O)/C(=C/c1ccc(C(F)(F)F)cc1)N(CC)CC", "> 100 µM (inactive)"),
    ("CC(C)(C)COC1C2(OCCO2)C2CCC1(C)C2(C)C (stereo unspecified)", "> 100 µM (inactive)"),
]

Hello, the source for this data is ChEMBL document CHEMBL1201862, in case you need it.
